- Assay Explanation: Clearance in dog at 0.25 mg/kg, iv
- Format: ADME, organism-based, Canis lupus familiaris
- Set-up: dose 0.25 mg/kg, route intravenous
- Assay Setup: in vivo
Reported Property: clearance (mL/min/kg)
The figure you give is taken to be in mL/min/kg; do not add the unit.

Enquiry: Please give the measured clearance for this compound: CS(=O)(=O)N1CCc2c(-c3cnc(N)nc3)nc(N3CCOCC3)nc21
Return: 6.4

---

- Assay Explanation: Half life in rat at 0.5 mg/kg, iv
- Type: ADME, organism-based
- Parameters: dose 0.5 mg/kg, route intravenous
- Assay Setup: in vivo
Reported Property: half-life (h)
The figure you give is taken to be in h; do not add the unit.

Enquiry: Please give the measured half-life for this compound: CS(=O)(=O)N1CCc2c(-c3cnc(N)nc3)nc(N3CCOCC3)nc21 [IZORLISIB]
Return: 2.6

---

- Assay Explanation: AUC (infinity) in mouse at 2 mg/kg, iv
- Type: ADME, organism-based
- Parameters: time infinity, dose 2 mg/kg, route intravenous
- Assay Setup: plasma
Reported Property: AUC(0-inf) (ng·h/mL)
The figure you give is taken to be in ng·h/mL; do not add the unit.

Enquiry: Please give the measured AUC(0-inf) for this compound: CS(=O)(=O)N1CCc2c(-c3cnc(N)nc3)nc(N3CCOCC3)nc21 [IZORLISIB]
Return: 1930

---

- Assay Explanation: Oral bioavailability in dog at 1 mg/kg
- Type: ADME, organism-based, Canis lupus familiaris
- Assay Setup: in vivo
Reported Property: bioavailability (%)
The figure you give is taken to be in %; do not add the unit.

Enquiry: Please give the measured bioavailability for this molecule: CS(=O)(=O)N1CCc2c(-c3cnc(N)nc3)nc(N3CCOCC3)nc21 [IZORLISIB]
Return: 54.2

---

- Assay Explanation: Half life in dog at 1 mg/kg, po
- Format: ADME, organism-based, Canis lupus familiaris
- Design: dose 1 mg/kg, route oral
- Assay Setup: in vivo
Reported Property: half-life (h)
The figure you give is taken to be in h; do not add the unit.

Enquiry: Please give the measured half-life for this compound: CS(=O)(=O)N1CCc2c(-c3cnc(N)nc3)nc(N3CCOCC3)nc21
Return: 3.3

---

- Assay Explanation: Half life in monkey at 0.25 mg/kg, iv
- Assay type: ADME, organism-based, Macaca mulatta
- Parameters: dose 0.25 mg/kg, route intravenous
- Assay Setup: rhesus monkey, in vivo
Reported Property: half-life (h)
The figure you give is taken to be in h; do not add the unit.

Enquiry: Please give the measured half-life for this compound: CS(=O)(=O)N1CCc2c(-c3cnc(N)nc3)nc(N3CCOCC3)nc21
Return: 3.2

---

- Assay Explanation: Half life in dog at 0.25 mg/kg, iv
- Type: ADME, organism-based, Canis lupus familiaris
- Set-up: dose 0.25 mg/kg, route intravenous
- Assay Setup: in vivo
Reported Property: half-life (min)
The figure you give is taken to be in min; do not add the unit.

Enquiry: Please give the measured half-life for this molecule: CS(=O)(=O)N1CCc2c(-c3cnc(N)nc3)nc(N3CCOCC3)nc21 [IZORLISIB]
Return: 96

---

- Assay Explanation: Half life in human liver microsomes
- Assay type: ADME, Microsome
In this section, each of the compounds is paired with its reported half-life.
The figure you give is taken to be in h; do not add the unit.

{"Chemical String": "Oc1cccc(-c2nc(N3CCOCC3)nc3c2CCN3c2ccncc2)c1", "half-life / h": 0.35}

Next compound, half-life to be filled in.
Enquiry: Please give the measured half-life for this compound: Nc1ncc(-c2nc(N3CCOCC3)nc3c2CCN3c2cccnc2)cn1
Return: 1.18

---

- Assay Explanation: Tmax in dog at 1 mg/kg, po
- Assay type: ADME, organism-based, Canis lupus familiaris
- Set-up: dose 1 mg/kg, route oral
- Assay Setup: in vivo
Reported Property: Tmax (h)
The figure you give is taken to be in h; do not add the unit.

Enquiry: Please give the measured Tmax for this compound: CS(=O)(=O)N1CCc2c(-c3cnc(N)nc3)nc(N3CCOCC3)nc21
Return: 4.5

---

- Assay Explanation: AUC (infinity) in monkey at 1 mg/kg, po
- Type: ADME, organism-based, Macaca mulatta
- Set-up: time infinity, dose 1 mg/kg, route oral
- Assay Setup: rhesus monkey, plasma
Reported Property: AUC(0-inf) (µg·h/mL)
The figure you give is taken to be in µg·h/mL; do not add the unit.

Enquiry: Please give the measured AUC(0-inf) for this molecule: CS(=O)(=O)N1CCc2c(-c3cnc(N)nc3)nc(N3CCOCC3)nc21
Return: 2.17

---

- Assay Explanation: Tmax in mouse at 1 mg/kg, po
- Format: ADME, organism-based
- Set-up: dose 1 mg/kg, route oral
- Assay Setup: in vivo
Reported Property: Tmax (min)
The figure you give is taken to be in min; do not add the unit.

Enquiry: Please give the measured Tmax for this molecule: CS(=O)(=O)N1CCc2c(-c3cnc(N)nc3)nc(N3CCOCC3)nc21 [IZORLISIB]
Return: 15

---

- Assay Explanation: Oral bioavailability in rat at 1 mg/kg
- Format: ADME, organism-based
- Assay Setup: in vivo
Reported Property: bioavailability

Enquiry: Please give the measured bioavailability for this compound: CS(=O)(=O)N1CCc2c(-c3cnc(N)nc3)nc(N3CCOCC3)nc21
Return: 66.2%

---

In this section, each of the compounds is paired with its reported half-life.
- Assay Explanation: Half life in human liver microsomes assessed as glucuronidation
- Assay type: ADME, Microsome

{"Chemical String": "Nc1ncc(-c2nc(N3CCOCC3)nc3c2CCN3c2cccnc2)cn1", "Test Result": "> 60 min"}

Next compound, half-life to be filled in.
Enquiry: Please give the measured half-life for this compound: Oc1cccc(-c2nc(N3CCOCC3)nc3c2CCN3c2ccncc2)c1
Return: 11 min

---

- Assay Explanation: AUC (infinity) in dog at 1 mg/kg, po
- Format: ADME, organism-based, Canis lupus familiaris
- Design: time infinity, dose 1 mg/kg, route oral
- Assay Setup: plasma
Reported Property: AUC(0-inf) (ng·h/mL)
The figure you give is taken to be in ng·h/mL; do not add the unit.

Enquiry: Please give the measured AUC(0-inf) for this molecule: CS(=O)(=O)N1CCc2c(-c3cnc(N)nc3)nc(N3CCOCC3)nc21
Return: 1430

---

- Assay Explanation: Half life in rat at 1 mg/kg, po
- Assay type: ADME, organism-based
- Design: dose 1 mg/kg, route oral
- Assay Setup: in vivo
Reported Property: half-life (h)
The figure you give is taken to be in h; do not add the unit.

Enquiry: Please give the measured half-life for this compound: CS(=O)(=O)N1CCc2c(-c3cnc(N)nc3)nc(N3CCOCC3)nc21
Return: 3.5

---

- Assay Explanation: Tmax in monkey at 1 mg/kg, po
- Type: ADME, organism-based, Macaca mulatta
- Set-up: dose 1 mg/kg, route oral
- Assay Setup: rhesus monkey, in vivo
Reported Property: Tmax (h)
The figure you give is taken to be in h; do not add the unit.

Enquiry: Please give the measured Tmax for this compound: CS(=O)(=O)N1CCc2c(-c3cnc(N)nc3)nc(N3CCOCC3)nc21
Return: 4

---

- Target Under Test: Phosphatidylinositol 3-kinase catalytic subunit type 3 (Homo sapiens)
- Sequence (Q8NEB9 whole entry): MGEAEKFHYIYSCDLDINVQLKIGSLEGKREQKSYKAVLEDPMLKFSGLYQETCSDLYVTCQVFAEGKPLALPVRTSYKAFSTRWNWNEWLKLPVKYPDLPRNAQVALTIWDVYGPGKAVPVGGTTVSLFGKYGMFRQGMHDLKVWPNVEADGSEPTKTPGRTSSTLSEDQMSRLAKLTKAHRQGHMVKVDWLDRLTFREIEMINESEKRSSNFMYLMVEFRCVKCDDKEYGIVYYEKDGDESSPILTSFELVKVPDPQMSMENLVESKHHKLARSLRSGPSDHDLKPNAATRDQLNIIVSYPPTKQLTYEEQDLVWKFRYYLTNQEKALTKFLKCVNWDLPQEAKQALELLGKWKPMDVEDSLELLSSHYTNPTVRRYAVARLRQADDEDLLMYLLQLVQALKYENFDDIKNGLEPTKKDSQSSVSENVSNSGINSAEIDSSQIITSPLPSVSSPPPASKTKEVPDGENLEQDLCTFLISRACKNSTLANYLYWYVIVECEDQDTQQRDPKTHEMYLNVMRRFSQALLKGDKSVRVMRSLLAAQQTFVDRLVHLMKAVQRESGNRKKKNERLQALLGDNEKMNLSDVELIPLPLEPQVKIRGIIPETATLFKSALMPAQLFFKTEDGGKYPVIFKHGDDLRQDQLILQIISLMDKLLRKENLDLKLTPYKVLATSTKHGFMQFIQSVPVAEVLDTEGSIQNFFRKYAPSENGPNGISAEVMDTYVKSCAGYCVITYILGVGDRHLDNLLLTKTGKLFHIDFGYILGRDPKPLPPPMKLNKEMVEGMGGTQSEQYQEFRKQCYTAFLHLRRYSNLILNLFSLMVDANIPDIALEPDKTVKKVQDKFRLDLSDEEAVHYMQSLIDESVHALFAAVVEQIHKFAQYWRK
- Assay Explanation: Inhibition of Vps34
pIC50: −log10 of the molar value.
Reported Property: pIC50

Enquiry: Please give the measured pIC50 for this molecule: CS(=O)(=O)N1CCc2c(-c3cnc(N)nc3)nc(N3CCOCC3)nc21
Return: < 5.00

---

- Assay Explanation: Oral bioavailability in mouse
- Type: ADME, organism-based
- Assay Setup: in vivo
In this section, each of the compounds is paired with its reported bioavailability.
The figure you give is taken to be in %; do not add the unit.

Known results for compounds:
{"Chemical String": "CS(=O)(=O)N1CCc2c(-c3cnc(N)nc3)nc(N3CCOCC3)nc21", "Reported Property": "bioavailability", "Unit Descriptor": "%", "Test Result": 101}
{"Chemical String": "Nc1ncc(-c2nc(N3CCOCC3)nc3c2CCN3c2cccnc2)cn1", "Reported Property": "bioavailability", "Unit Descriptor": "%", "Test Result": 41}

Enquiry: Please give the measured bioavailability for this compound: Oc1cccc(-c2nc(N3CCOCC3)nc3c2CCN3c2ccncc2)c1
Return: 1.6

---

- Assay Explanation: Half life in mouse at 1 mg/kg, po
- Format: ADME, organism-based
- Design: dose 1 mg/kg, route oral
- Assay Setup: in vivo
Reported Property: half-life (h)
The figure you give is taken to be in h; do not add the unit.

Enquiry: Please give the measured half-life for this compound: CS(=O)(=O)N1CCc2c(-c3cnc(N)nc3)nc(N3CCOCC3)nc21 [IZORLISIB]
Return: 3.8
